Numbers sourced from patent US20170037008A1.

Experiment: Biological distribution in bodies of normal mice
Format: in vivo, mice (ICR)
Particulars: caudal vein injection, 30 min
Measured Attribute: Brain (% ID/g)

[
  {
    "Compound": "COc1ccc(COc2ccc(OCCOCCOCC[18F])cc2)cc1 [[^18F] 53b]",
    "Brain [% ID/g]": 1.39
  },
  {
    "Compound": "COc1ccc(OCc2ccc(OCC[18F])cc2)cc1 [[^18F]44a]",
    "Brain [% ID/g]": 2.77
  }
]

1: CN(C)c1ccc(OCc2ccc([125I])cc2)cc1 [[^125I]22]
2: COc1ccc(OCc2ccc([125I])cc2)cc1 [[^125I]4]
q: Quick one: lower Brain, 1 or 2 ? Lab log: write the label of the selected item as the result.
a: 2
(2: 0.88 % ID/g, 1: 1.34 % ID/g)

* * *

Experiment: Biological distribution in bodies of normal mice
Type: in vivo, mice (ICR)
Particulars: caudal vein injection, 2 min
Measured Attribute: Blood (% ID/g)

[
  {
    "Molecule": "COc1ccc(OCc2ccc([125I])cc2)cc1 [[^125I]4]",
    "Blood (% ID/g)": 3.03
  },
  {
    "Molecule": "FCCOc1ccc(COc2ccc([125I])cc2)cc1 [[^125I]35a]",
    "Blood (% ID/g)": 4.96
  },
  {
    "Molecule": "COc1ccc(COc2ccc(OCCOCCOCC[18F])cc2)cc1 [[^18F] 53b]",
    "Blood (% ID/g)": 3.95
  },
  {
    "Molecule": "COc1ccc(OCc2ccc(OCC[18F])cc2)cc1 [[^18F]44a]",
    "Blood (% ID/g)": 3.90
  },
  {
    "Molecule": "FCCOc1ccc(OCc2ccc([125I])cc2)cc1 [[^125I]31a]",
    "Blood (% ID/g)": 5.03
  },
  {
    "Molecule": "COc1ccc(COc2ccc([125I])cc2)cc1 [[^125I]24]",
    "Blood (% ID/g)": 5.13
  },
  {
    "Molecule": "COc1ccc(COc2ccc(OCC[18F])cc2)cc1 [[^18F] 53a]",
    "Blood (% ID/g)": 4.26
  },
  {
    "Molecule": "CN(C)c1ccc(OCc2ccc([125I])cc2)cc1 [[^125I]22]",
    "Blood (% ID/g)": 4.01
  },
  {
    "Molecule": "CN(C)c1ccc(-c2cn3cc([125I])ccc3n2)cc1 [[^125I]IMPY, reference compound]",
    "Blood (% ID/g)": 3.85
  }
]

* * *

Tgt: Aβ1-42 aggregates (Homo sapiens, UniProt P05067)
Construct: Preparing receptor Aβ1-42 proteins according to the existing method
Sequence (P05067 672-713 limits assumed): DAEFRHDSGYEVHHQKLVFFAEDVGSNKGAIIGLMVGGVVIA
Experiment: In-vitro competitive binding experiments (Ki determination) with Aβ1-42 aggregates
Measured Attribute: Ki (nM)

Examples from the recorded data:
[
  {
    "Compound": "CNc1ccc(OCc2ccc(I)cc2)cc1 [Compound 19, 4-(4-iodobenzyloxy)-N-methylaniline]",
    "Tgt": "Aβ1-42 aggregates (Homo sapiens, UniProt P05067)",
    "Readout Units": "nM",
    "Ki": 57
  },
  {
    "Compound": "Clc1ccc(OCc2ccc(I)cc2)cc1 [Compound 11, 1-chloro-4-(4-iodobenzyloxy) benzene]",
    "Tgt": "Aβ1-42 aggregates (Homo sapiens, UniProt P05067)",
    "Readout Units": "nM",
    "Ki": 22.3
  }
]

I: COc1ccc(COc2ccc(I)cc2)cc1 [Compound 24, 1-iodo-4-(4-methoxybenzyloxy) benzene]
II: COc1ccccc1OCc1ccc(I)cc1 [Compound 6, 1-(4-iodobenzyloxy)-2-methoxybenzene]
q: Compare the recorded Ki of I and II ; state which is larger. Your answer should be the label attached to the chosen record.
a: II
(II: 6110 nM, I: 58.5 nM)

* * *

Experiment: Biological distribution in bodies of normal mice
Assay type: in vivo, mice (ICR)
Particulars: caudal vein injection, 2 min
Measured Attribute: Brain (% ID/g)

These solved cases illustrate the format of a correct answer.
[
  {
    "Compound": "COc1ccc(OCc2ccc([125I])cc2)cc1 [[^125I]4]",
    "Number": 6.18
  },
  {
    "Compound": "COc1ccc(COc2ccc(OCC[18F])cc2)cc1 [[^18F] 53a]",
    "Number": 9.95
  },
  {
    "Compound": "COc1ccc(OCc2ccc(OCC[18F])cc2)cc1 [[^18F]44a]",
    "Number": 7.54
  },
  {
    "Compound": "FCCOc1ccc(COc2ccc([125I])cc2)cc1 [[^125I]35a]",
    "Number": 5.27
  },
  {
    "Compound": "COc1ccc(COc2ccc([125I])cc2)cc1 [[^125I]24]",
    "Number": 4.29
  },
  {
    "Compound": "COc1ccc(COc2ccc(OCCOCCOCC[18F])cc2)cc1 [[^18F] 53b]",
    "Number": 9.71
  },
  {
    "Compound": "CN(C)c1ccc(-c2cn3cc([125I])ccc3n2)cc1 [[^125I]IMPY, reference compound]",
    "Number": 5.05
  }
]

1: CN(C)c1ccc(OCc2ccc([125I])cc2)cc1 [[^125I]22]
2: FCCOc1ccc(OCc2ccc([125I])cc2)cc1 [[^125I]31a]
q: Which of the two items, 1 and 2 , has the greater recorded Brain? Give the label under which the chosen entry appears.
a: 2

* * *

Experiment: Biological distribution in bodies of normal mice
Format: in vivo, mice (ICR)
Particulars: caudal vein injection, 10 min
Measured Attribute: Blood (% ID/g)

A: COc1ccc(COc2ccc([125I])cc2)cc1 [[^125I]24]
B: CN(C)c1ccc(-c2cn3cc([125I])ccc3n2)cc1 [[^125I]IMPY, reference compound]
q: Min Blood? A | B Give the label of your selection.
a: B

* * *

Tgt: Aβ1-42 aggregates (Homo sapiens, UniProt P05067)
Construct: Preparing receptor Aβ1-42 proteins according to the existing method
Experiment: In-vitro competitive binding experiments (Ki determination) with Aβ1-42 aggregates
Particulars: competition against radioligand [^125I] IMPY, Aβ1-42 aggregates, 37° C., 2 h
Method: Binding reaction occurs between Aβ1-42 aggregate proteins with certain concentration and radioactive ligands [^125I] […] 4, the compounds are separated after balancing, and the inhibition constant (Ki) is calculated by determining radioactivity. […] (3) Preparing the compounds to be determined into 10^−3 to 10^−9 mol/L continuously diluted ethanol solution; […] (6) Respectively adding 100 μl of solution of compounds with different concentration and to be determined, 100 μl of [^125I] […]
Measured Attribute: Ki (nM)

a: FCCOc1ccc(COc2cccnc2I)cc1
b: O=c1ccc(I)cn1Cc1ccc(I)cc1
q: Which has the higher Ki, a or b ? Refer to your chosen entry by its label in the reply.
a: a
(a: 2080 nM, b: 1060 nM)

* * *

Experiment: Biological distribution in bodies of normal mice
Format: in vivo, mice (ICR)
Particulars: caudal vein injection, 2 min
Measured Attribute: Thyroid (% ID/organ)

[
  {
    "Compound": "CN(C)c1ccc(-c2cn3cc([125I])ccc3n2)cc1 [[^125I]IMPY, reference compound]",
    "Thyroid, % ID/organ": 0.12
  },
  {
    "Compound": "CN(C)c1ccc(OCc2ccc([125I])cc2)cc1 [[^125I]22]",
    "Thyroid, % ID/organ": 0.11
  },
  {
    "Compound": "COc1ccc(OCc2ccc([125I])cc2)cc1 [[^125I]4]",
    "Thyroid, % ID/organ": 0.14
  },
  {
    "Compound": "FCCOc1ccc(OCc2ccc([125I])cc2)cc1 [[^125I]31a]",
    "Thyroid, % ID/organ": 0.12
  },
  {
    "Compound": "FCCOc1ccc(COc2ccc([125I])cc2)cc1 [[^125I]35a]",
    "Thyroid, % ID/organ": 0.13
  }
]

* * *

Experiment: Biological distribution in bodies of normal mice
Type: in vivo, mice (ICR)
Particulars: caudal vein injection, 30 min
Measured Attribute: Blood (% ID/g)

Past entries and their recorded results:
[
  {
    "Compound": "CN(C)c1ccc(OCc2ccc([125I])cc2)cc1 [[^125I]22]",
    "Number": 2.53
  },
  {
    "Compound": "COc1ccc(OCc2ccc(OCC[18F])cc2)cc1 [[^18F]44a]",
    "Number": 4.28
  },
  {
    "Compound": "COc1ccc(COc2ccc([125I])cc2)cc1 [[^125I]24]",
    "Number": 3.31
  },
  {
    "Compound": "COc1ccc(OCc2ccc([125I])cc2)cc1 [[^125I]4]",
    "Number": 2.56
  },
  {
    "Compound": "FCCOc1ccc(COc2ccc([125I])cc2)cc1 [[^125I]35a]",
    "Number": 3.89
  }
]

I: COc1ccc(COc2ccc(OCC[18F])cc2)cc1 [[^18F] 53a]
II: CN(C)c1ccc(-c2cn3cc([125I])ccc3n2)cc1 [[^125I]IMPY, reference compound]
III: FCCOc1ccc(OCc2ccc([125I])cc2)cc1 [[^125I]31a]
q: Kindly order the items shown according to Blood, from the highest value down. Lab note: record answer as labels in requested order.
a: I, III, II
